- experimental.target: recombinant human kappa (KOR) opioid receptor (Homo sapiens, UniProt P41145)
- Sequence (P41145 whole entry): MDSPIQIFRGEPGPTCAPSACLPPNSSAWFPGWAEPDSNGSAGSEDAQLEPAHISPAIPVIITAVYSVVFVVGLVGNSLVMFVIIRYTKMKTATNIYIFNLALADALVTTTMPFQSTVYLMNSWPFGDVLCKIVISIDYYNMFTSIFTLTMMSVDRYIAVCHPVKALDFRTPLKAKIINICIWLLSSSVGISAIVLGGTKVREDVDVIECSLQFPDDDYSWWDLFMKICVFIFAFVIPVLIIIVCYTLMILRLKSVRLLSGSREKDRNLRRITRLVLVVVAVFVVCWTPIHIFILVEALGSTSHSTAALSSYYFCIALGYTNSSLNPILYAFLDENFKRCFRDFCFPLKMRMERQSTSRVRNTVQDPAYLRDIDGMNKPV
- experiment.summary: biochemical
recorded.metric: Ki (nM)

- COCCOCCOCCOCCOCCOCCOCCOC(=O)NC1(C(=O)Nc2cccc([C@@H](CN3CC[C@H](O)C3)N(C)C(=O)Cc3ccc(Cl)c(Cl)c3)c2)CC1 [compound 49]: 0.37
- COCCOCCS(=O)(=O)Nc1cccc([C@@H](CN2CCCC2)N(C)C(=O)Cc2ccc(Cl)c(Cl)c2)c1 [compound 20]: 0.14
- CN(C(=O)Cc1ccc(Cl)c(Cl)c1)[C@H](CN1CC[C@H](OCCOCCOCCO)C1)c1ccccc1 [compound 27]: 13.8
- COCCOCC(=O)Nc1cccc([C@@H](CN2CC[C@H](O)C2)N(C)C(=O)Cc2ccc(Cl)c(Cl)c2)c1 [compound 50]: 0.12
- COCCOCCOCCOCCOCCNC(=O)Nc1cccc([C@@H](CN2CCCC2)N(C)C(=O)Cc2ccc(Cl)c(Cl)c2)c1 [compound 15]: 0.54
- COCCOCCOCCOCCOCCOc1ccc(CC(=O)N(C)[C@H](CN2CCCC2)c2ccccc2)cc1 [compound 13]: 305
- CCN(CCOC)C[C@H](c1ccccc1)N(C)C(=O)Cc1ccc(Cl)c(Cl)c1.Cl [compound 10]: 19.1
